# STUDY TARGET: mouse TRPM3α2 (mTRPM3) ion channel (Mus musculus)
# ASSAY DETAILS: Monitoring the TRPM3 ion channel driven Ca2+ uptake (Fluo-4 AM assay)
# ASSAY CONTEXT: TRPM3 overexpressing flip-in HEK293 cells, channel stimulated with Pregnenolone sulfate (PS) 50 μM
Quick list: IC50 per entry.

Cc1sc2ccc(OCC3CC3)cc2c1C(=O)NC(C)(C)C(N)=O | < 1000 nM
Cc1ncc(COc2ccc3sc(C)c(C(=O)NC(C)(CO)C(N)=O)c3c2)s1 (single isomer, unassigned) [Cpd 019 - En2] | < 1000 nM
Cc1sc2ccc(OCc3cccnc3C(F)(F)F)cc2c1C(=O)NCC(C)(C)N1CCOCC1 | 1000 to 20000 nM

**Query** Quick check: IC50 of `Cc1sc2ccc(OCc3cccnc3O)cc2c1C(=O)NC1(CO)CCC1` ?
**Result** 1000 to 20000 nM

---

Quick list: pIC50 per entry.
# STUDY TARGET: UniProt:J9SQF3
# ASSAY DETAILS: Monitoring the TRPM3 ion channel driven Ca2+ uptake (Fluo-4 AM assay)
# ASSAY CONTEXT: TRPM3 overexpressing flip-in HEK293 cells, channel stimulated with Pregnenolone sulfate (PS) 50 μM
pIC50: −log10 of the molar value.

Cc1sc2ccc(OCc3cccnc3C(F)(F)F)cc2c1C(=O)N[C@H](CO)C(N)=O | > 6.00

**Query** Quick check: pIC50 of CN1CC(NC(=O)c2c(C(F)F)sc3ccc(OCc4ccccc4)cc23)C(F)(F)C1 (centres unmarked) ?
**Result** 4.70 to 6.00

**Query** What do you get for `Cc1ncc(COc2ccc3sc(C)c(C(=O)NC4(CO)CCOCC4)c3c2)s1` ?
**Result** 4.70 to 6.00

**Query** What do you get for CNC(=O)C(C)(CO)NC(=O)c1c(C)sc2ccc(OCc3cnc(C)s3)cc12 (single isomer, unassigned) [Cpd 132 - En1] ?
**Result** > 6.00

**Query** What do you get for `CNC(=O)c1c(C(F)F)sc2ccc(OCc3ccccc3)cc12` ?
**Result** < 4.70

---

Quick list: IC50 per entry.
# STUDY TARGET: mouse TRPM3α2 (mTRPM3) ion channel (Mus musculus, UniProt J9SQF3)
# Sequence (J9SQF3 1-1709 isoform J9SQF3-12): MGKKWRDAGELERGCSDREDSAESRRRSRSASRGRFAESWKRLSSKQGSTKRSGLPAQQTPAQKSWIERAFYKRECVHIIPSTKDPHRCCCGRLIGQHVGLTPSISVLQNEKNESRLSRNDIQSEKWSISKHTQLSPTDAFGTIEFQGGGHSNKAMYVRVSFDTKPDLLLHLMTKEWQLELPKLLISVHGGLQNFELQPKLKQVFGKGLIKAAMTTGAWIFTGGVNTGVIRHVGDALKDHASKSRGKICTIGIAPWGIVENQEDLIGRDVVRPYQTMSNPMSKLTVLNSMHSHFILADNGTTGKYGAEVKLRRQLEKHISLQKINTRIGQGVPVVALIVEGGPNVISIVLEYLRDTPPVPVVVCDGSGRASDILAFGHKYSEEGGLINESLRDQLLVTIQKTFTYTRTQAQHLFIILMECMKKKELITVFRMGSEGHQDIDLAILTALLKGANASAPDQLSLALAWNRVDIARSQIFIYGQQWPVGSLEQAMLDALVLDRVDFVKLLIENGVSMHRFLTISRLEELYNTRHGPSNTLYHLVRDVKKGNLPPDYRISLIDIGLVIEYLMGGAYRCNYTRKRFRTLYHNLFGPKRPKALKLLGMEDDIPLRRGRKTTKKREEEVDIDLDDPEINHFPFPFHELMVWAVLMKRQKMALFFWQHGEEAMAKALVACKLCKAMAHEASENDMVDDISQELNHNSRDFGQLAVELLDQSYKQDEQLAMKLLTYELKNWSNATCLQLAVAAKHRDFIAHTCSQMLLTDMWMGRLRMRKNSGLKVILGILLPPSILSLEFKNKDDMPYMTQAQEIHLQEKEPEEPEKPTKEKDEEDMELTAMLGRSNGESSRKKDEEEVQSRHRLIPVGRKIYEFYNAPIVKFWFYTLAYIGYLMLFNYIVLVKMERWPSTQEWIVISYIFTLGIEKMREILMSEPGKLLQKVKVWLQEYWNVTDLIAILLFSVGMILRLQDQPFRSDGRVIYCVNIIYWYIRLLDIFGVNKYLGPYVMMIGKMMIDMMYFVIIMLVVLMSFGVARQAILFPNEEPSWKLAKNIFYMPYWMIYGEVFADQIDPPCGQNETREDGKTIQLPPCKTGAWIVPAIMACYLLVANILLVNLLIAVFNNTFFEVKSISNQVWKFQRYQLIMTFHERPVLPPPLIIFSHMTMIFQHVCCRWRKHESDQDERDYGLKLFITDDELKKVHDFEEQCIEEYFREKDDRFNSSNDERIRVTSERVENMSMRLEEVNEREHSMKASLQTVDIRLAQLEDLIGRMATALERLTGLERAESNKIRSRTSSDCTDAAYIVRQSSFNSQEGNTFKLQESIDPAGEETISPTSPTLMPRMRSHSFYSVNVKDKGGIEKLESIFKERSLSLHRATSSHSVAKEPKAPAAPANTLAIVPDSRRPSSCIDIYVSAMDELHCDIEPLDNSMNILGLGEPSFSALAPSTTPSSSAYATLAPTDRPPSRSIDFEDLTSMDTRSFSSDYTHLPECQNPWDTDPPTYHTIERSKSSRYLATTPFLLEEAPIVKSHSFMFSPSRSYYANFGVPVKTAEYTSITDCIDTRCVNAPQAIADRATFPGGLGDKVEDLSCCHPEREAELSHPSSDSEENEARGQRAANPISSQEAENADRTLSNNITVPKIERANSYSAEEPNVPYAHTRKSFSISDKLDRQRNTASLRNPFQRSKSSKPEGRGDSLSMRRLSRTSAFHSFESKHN
# ASSAY DETAILS: Monitoring the TRPM3 ion channel driven Ca2+ uptake (Fluo-4 AM assay)
# ASSAY CONTEXT: TRPM3 overexpressing flip-in HEK293 cells, channel stimulated with Pregnenolone sulfate (PS) 50 μM

Use the examples below as a reference point.
Cc1sc2ccc(OCC3COC3)cc2c1C(=O)NC(C)(CO)C(N)=O (single isomer, unassigned) [Cpd 068 - En2] | 1000 to 20000 nM
Cc1sc2ccc(OCc3ccccn3)cc2c1C(=O)NC1(CO)CCC1 | < 1000 nM

**Query** Give recorded IC50 with mouse TRPM3α2 (mTRPM3) ion channel (Mus musculus, UniProt J9SQF3) for the following compound: `Cc1ncsc1COc1ccc2sc(C)c(C(=O)N[C@H]3CCN(CCO)C3=O)c2c1`
**Result** < 1000 nM

**Query** What do you get for CNC(=O)C1(NC(=O)c2c(C)sc3ccc(OCc4cnc(C)s4)cc23)CCOC1 (single isomer, unassigned) [Cpd 133 - En1] ?
**Result** < 1000 nM
